# Method Summary: Drug excretion in human feces at […], po administered as single dose
# Type: ADME, organism-based
# Design: route oral
# Condition Set: faeces, read-out: Drug excretion

Compound Smiles	Value Unit	dose excreted
O=C([C@@H]1C[C@H](N2CCN([14c]3ncccn3)CC2)CN1)N1CCC(F)(F)C1	%	10.4

====

# Tested on: Homo sapiens
# Method Summary: Total drug level in human treated with [14C]PF-00734200 assessed as total radio activity at […], po administered as single dose […]
# Format: ADME, organism-based
# Set-up: route oral
# Condition Set: in vivo
Readout Type: Drug uptake

Compound	Assayed Target	Readout Type	Result Value
O=C([C@@H]1C[C@H](N2CCN(c3ncccn3)CC2)CN1[C@@H]1O[C@H](CO)[C@@H](O)[C@H](O)[C@H]1O)N1CCC(F)(F)C1	Homo sapiens	Drug uptake	0.9%
O=C(O)[C@H]1O[C@@H](OC(=O)N2C[C@@H](N3CCN(c4ncccn4)CC3)C[C@H]2C(=O)N2CCC(F)(F)C2)[C@H](O)[C@@H](O)[C@@H]1O	Homo sapiens	Drug uptake	6%
NC(=O)N1C[C@@H](N2CCN(c3ncccn3)CC2)C[C@H]1C(=O)N1CCC(F)(F)C1	Homo sapiens	Drug uptake	1%
O=C([C@@H]1C[C@H](N2CCN(c3ncccn3)CC2)CN1)N1CCC(F)(F)C1 [GOSOGLIPTIN]	Homo sapiens	Drug uptake	48.9%
N=C(N)N1CCN([C@H]2C[C@@H](C(=O)N3CCC(F)(F)C3)N(C=O)C2)CC1	Homo sapiens	Drug uptake	0.1%
O=C([C@@H]1C[C@H](N2CCN(c3ncc(O)cn3)CC2)CN1)N1CCC(F)(F)C1	Homo sapiens	Drug uptake	20.6%
N=C(N)N1CCN([C@@H]2CN[C@H](C(=O)N3CCC(F)(F)C3)C2)CC1	Homo sapiens	Drug uptake	3%
O=C(O)[C@@H]1C[C@H](N2CCN(c3ncccn3)CC2)CN1	Homo sapiens	Drug uptake	2.3%

====

Reported Retention_time values for a set of compounds
# Method Summary: Retention time of the compound by HPLC method
# Assay type: physicochemical

Compound Smiles	Value Unit	Retention_time
O=C([C@@H]1C[C@H](N2CCN(c3ncccn3)CC2)CN1[C@@H]1O[C@H](CO)[C@@H](O)[C@H](O)[C@H]1O)N1CCC(F)(F)C1	min	29.2
O=C(O)[C@H]1O[C@@H](OC(=O)N2C[C@@H](N3CCN(c4ncc(O)cn4)CC3)C[C@H]2C(=O)N2CCC(F)(F)C2)[C@H](O)[C@@H](O)[C@@H]1O	min	24.5
O=C([C@@H]1C[C@H](N2CCN(c3ncc(OS(=O)(=O)O)cn3)CC2)CN1)N1CCC(F)(F)C1	min	24.5
O=CN1C[C@@H](N2CCN(c3ncc(O)cn3)CC2)C[C@H]1C(=O)N1CCC(F)(F)C1	min	27.4
N=C(N)N1CCN([C@@H]2CN[C@H](C(=O)N3CCC(F)(F)C3)C2)CC1	min	3
N=C(N)N1CCN([C@H]2C[C@@H](C(=O)N3CCC(F)(F)C3)N(C=O)C2)CC1	min	20.1
O=C([C@@H]1C[C@H](N2CCN(c3ncc(O)cn3)CC2)CN1[C@@H]1O[C@H](CO)[C@@H](O)[C@H](O)[C@H]1O)N1CCC(F)(F)C1	min	28.2
O=C([C@@H]1C[C@H](N2CCN(c3ncc(O)cn3)CC2)CN1)N1CCC(F)(F)C1	min	25.5
O=C(O)[C@H]1O[C@@H](OC(=O)N2C[C@@H](N3CCN(c4ncccn4)CC3)C[C@H]2C(=O)N2CCC(F)(F)C2)[C@H](O)[C@@H](O)[C@@H]1O	min	28.2
c1cnc(N2CCNCC2)nc1	min	6.5

====

# Method Summary: Drug recovery in human at […], po administered as single dose
# Assay type: ADME, organism-based
# Design: route oral
# Condition Set: in vivo, read-out: Drug recovery

Compound Smiles	Value Unit	dose excreted
O=C([C@@H]1C[C@H](N2CCN([14c]3ncccn3)CC2)CN1)N1CCC(F)(F)C1	%	87.2

====

# Method Summary: Retention time of the compound by HPLC method
# Type: physicochemical
Reported Retention_time values for a set of compounds

Compound Smiles	Retention_time
NC(=O)N1C[C@@H](N2CCN(c3ncccn3)CC2)C[C@H]1C(=O)N1CCC(F)(F)C1	30.2 min
O=C(O)[C@@H]1C[C@H](N2CCN(c3ncccn3)CC2)CN1	5.6 min
NC(=O)N1C[C@@H](N2CCN(c3ncc(O)cn3)CC2)C[C@H]1C(=O)N1CCC(F)(F)C1	26 min
O=C(O)[C@H]1O[C@@H](Oc2cnc(N3CCN([C@@H]4CN[C@H](C(=O)N5CCC(F)(F)C5)C4)CC3)nc2)[C@H](O)[C@@H](O)[C@@H]1O	14.3 min

====

# Method Summary: Drug excretion in beagle dog urine at 5 mg/kg, po administered as single dose
# Assay type: ADME, organism-based, Canis lupus familiaris
# Set-up: dose 5 mg/kg, route oral
# Condition Set: read-out: Drug excretion

Compound Smiles	dose excreted / %
O=C([C@@H]1C[C@H](N2CCN([14c]3ncccn3)CC2)CN1)N1CCC(F)(F)C1	66.7

====

# Method Summary: Drug level in urine of human treated with [14C]PF-00734200 at […], po administered as single dose by LC-MS/MS method
# Assay type: ADME, organism-based
# Set-up: route oral
# Condition Set: in vivo
Tag: 1.0 if measured Drug uptake is not below 1%, 0.0 if it is.

Compound Smiles	Class Label
O=C(O)[C@@H]1C[C@H](N2CCN(c3ncccn3)CC2)CN1	1.0
O=C(O)[C@H]1O[C@@H](OC(=O)N2C[C@@H](N3CCN(c4ncccn4)CC3)C[C@H]2C(=O)N2CCC(F)(F)C2)[C@H](O)[C@@H](O)[C@@H]1O	1.0
O=C([C@@H]1C[C@H](N2CCN(c3ncc(O)cn3)CC2)CN1)N1CCC(F)(F)C1	1.0
N=C(N)N1CCN([C@H]2C[C@@H](C(=O)N3CCC(F)(F)C3)N(C=O)C2)CC1	0.0
O=C([C@@H]1C[C@H](N2CCN(c3ncccn3)CC2)CN1[C@@H]1O[C@H](CO)[C@@H](O)[C@H](O)[C@H]1O)N1CCC(F)(F)C1	0.0
O=C([C@@H]1C[C@H](N2CCN(c3ncccn3)CC2)CN1)N1CCC(F)(F)C1	1.0

====

Reported Drug uptake values for a set of compounds
# Method Summary: Drug level in feces of human treated with [14C]PF-00734200 at […], po administered as single dose by LC-MS/MS method
# Assay type: ADME, organism-based
# Parameters: route oral
# Condition Set: in vivo
Readout Type: Drug uptake (%)

Compound Smiles	Value Unit	Result Value
O=C([C@@H]1C[C@H](N2CCN(c3ncccn3)CC2)CN1)N1CCC(F)(F)C1	%	0.4
O=C(O)[C@@H]1C[C@H](N2CCN(c3ncccn3)CC2)CN1	%	1.2
N=C(N)N1CCN([C@@H]2CN[C@H](C(=O)N3CCC(F)(F)C3)C2)CC1	%	3
O=C([C@@H]1C[C@H](N2CCN(c3ncc(O)cn3)CC2)CN1)N1CCC(F)(F)C1	%	2.7

====

# Method Summary: Drug excretion in human urine at […], po administered as single dose
# Type: ADME, organism-based
# Parameters: route oral
# Condition Set: read-out: Drug excretion
Readout Type: dose excreted (%)

Compound Smiles	Readout Type	Result Value
O=C([C@@H]1C[C@H](N2CCN([14c]3ncccn3)CC2)CN1)N1CCC(F)(F)C1	dose excreted	76.8

====

# Method Summary: Drug excretion in beagle dog feces at 5 mg/kg, po administered as single dose
# Assay type: ADME, organism-based, Canis lupus familiaris
# Parameters: dose 5 mg/kg, route oral
# Condition Set: faeces, read-out: Drug excretion
Readout Type: dose excreted (%)

Compound Smiles	Value Unit	Result Value
O=C([C@@H]1C[C@H](N2CCN([14c]3ncccn3)CC2)CN1)N1CCC(F)(F)C1	%	16.8

====

# Method Summary: Drug recovery in beagle dog at 5 mg/kg, po administered as single dose
# Format: ADME, organism-based, Canis lupus familiaris
# Parameters: dose 5 mg/kg, route oral
# Condition Set: in vivo, read-out: Drug recovery

Compound Smiles	dose excreted
O=C([C@@H]1C[C@H](N2CCN([14c]3ncccn3)CC2)CN1)N1CCC(F)(F)C1	92.2%

====

# Method Summary: Drug excretion in Sprague-Dawley rat urine at 5 mg/kg, po administered as single dose
# Format: ADME, organism-based
# Parameters: dose 5 mg/kg, route oral
# Condition Set: read-out: Drug excretion

Compound Smiles	dose excreted, %
O=C([C@@H]1C[C@H](N2CCN([14c]3ncccn3)CC2)CN1)N1CCC(F)(F)C1	30.8

====

# Test system: Rattus norvegicus
# Method Summary: Total drug level in Sprague-Dawley rat treated with [14C]PF-00734200 assessed as total radio activity at 5 mg/kg, po administered as single dose […]
# Assay type: ADME, organism-based
# Parameters: dose 5 mg/kg, route oral
# Condition Set: in vivo
Reported Drug uptake values for a set of molecules

Molecule	Assayed Target	Drug uptake [%]
N=C(N)N1CCN([C@H]2C[C@@H](C(=O)N3CCC(F)(F)C3)N(C=O)C2)CC1	Rattus norvegicus	0.1
O=C(O)[C@H]1O[C@@H](Oc2cnc(N3CCN([C@@H]4CN[C@H](C(=O)N5CCC(F)(F)C5)C4)CC3)nc2)[C@H](O)[C@@H](O)[C@@H]1O	Rattus norvegicus	2.9
O=C([C@@H]1C[C@H](N2CCN(c3ncc(O)cn3)CC2)CN1)N1CCC(F)(F)C1	Rattus norvegicus	39.6
O=C(O)[C@@H]1C[C@H](N2CCN(c3ncccn3)CC2)CN1	Rattus norvegicus	5.5
O=C([C@@H]1C[C@H](N2CCN(c3ncccn3)CC2)CN1)N1CCC(F)(F)C1 [GOSOGLIPTIN]	Rattus norvegicus	12.1
O=CN1C[C@@H](N2CCN(c3ncc(O)cn3)CC2)C[C@H]1C(=O)N1CCC(F)(F)C1	Rattus norvegicus	5.5
N=C(N)N1CCN([C@@H]2CN[C@H](C(=O)N3CCC(F)(F)C3)C2)CC1	Rattus norvegicus	20.9
c1cnc(N2CCNCC2)nc1 [2-PIPERAZIN-1-YL-PYRIMIDINE]	Rattus norvegicus	1.4

Provenance of the data: ChEMBL document CHEMBL3526145
